- tested.on: bovine β-cardiac myosin S1 (Bos taurus)
- Construct: IC50 for the ATPase activity of the isolated myosin motor domain; from tissue; host or cells: bovine ventricle
- assay.method.text: Cardiac acto-myosin S1 ATPase (NADH-coupled)
- Assay type: biochemical
- conditions.used: IC50 acto-myosin S1 ATPase activity, means ± s.e.m., n = 6
property: IC50 (µM)
Please reply with the bare figure in µM and do not write the unit itself.

response.value for CCc1cc2c(=O)n(NC(=S)NC(C)C)cnc2s1 [F10] (field: IC50) = 21.3

----------
- tested.on: bovine β-cardiac myosin S1 (Bos taurus, UniProt Q9BE39)
- Construct: IC50 for the ATPase activity of the isolated myosin motor domain; from tissue; host or cells: bovine ventricle
- Sequence (Q9BE39 85-778 limits assumed): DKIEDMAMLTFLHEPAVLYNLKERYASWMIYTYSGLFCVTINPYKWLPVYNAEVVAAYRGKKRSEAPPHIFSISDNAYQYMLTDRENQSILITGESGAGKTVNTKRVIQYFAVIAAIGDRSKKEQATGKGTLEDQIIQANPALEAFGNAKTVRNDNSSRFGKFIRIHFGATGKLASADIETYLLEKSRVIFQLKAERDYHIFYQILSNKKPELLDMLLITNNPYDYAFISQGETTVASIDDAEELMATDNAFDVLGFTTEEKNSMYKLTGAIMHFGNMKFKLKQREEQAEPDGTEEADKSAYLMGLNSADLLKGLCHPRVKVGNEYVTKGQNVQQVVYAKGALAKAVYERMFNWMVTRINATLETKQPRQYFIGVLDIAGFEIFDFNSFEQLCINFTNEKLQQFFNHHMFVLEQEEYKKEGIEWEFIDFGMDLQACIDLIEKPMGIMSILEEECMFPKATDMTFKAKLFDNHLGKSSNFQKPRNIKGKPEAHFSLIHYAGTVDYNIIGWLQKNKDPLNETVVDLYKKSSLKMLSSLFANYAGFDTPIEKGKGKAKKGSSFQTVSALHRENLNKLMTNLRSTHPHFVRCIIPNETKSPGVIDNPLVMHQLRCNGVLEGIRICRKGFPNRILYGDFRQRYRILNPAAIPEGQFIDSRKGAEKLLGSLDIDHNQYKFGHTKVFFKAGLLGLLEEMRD
- Sequence (P85100 whole entry partner, the tested form may be a part): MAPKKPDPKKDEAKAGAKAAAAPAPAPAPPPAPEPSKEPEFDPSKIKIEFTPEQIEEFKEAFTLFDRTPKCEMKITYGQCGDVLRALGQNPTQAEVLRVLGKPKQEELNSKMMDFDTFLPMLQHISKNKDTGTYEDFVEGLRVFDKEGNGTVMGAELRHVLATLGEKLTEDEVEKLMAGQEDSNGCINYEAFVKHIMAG
- assay.method.text: Cardiac acto-myosin S1 ATPase (NADH-coupled)
- Assay type: biochemical
property: EC50

response.value for `CCc1cc2c(=O)n(NC(=S)NC(C)C)cnc2s1` (field: EC50) = ~20 µM

FYI, the data here is from paper PMC10673995.
